Listed next: entries and their corresponding percentage of EdU-negative.
system: hTERT-HMEC; experiment: percentage of EdU-negative (G0-arrested) nuclei per well, 72 h; higher = more G0 arrest; settings: protein concentration 0.0225 µM; reference: sequence is the full UniProt precursor, the tested protein was the secreted form or ectodomain;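 further: secreted proteins added to cultured cells, EdU pulse at the end, nuclei found by Hoechst imaging, EdU status from nuclear versus surrounding ring intensity ratio, PBS as neutral control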

Sequence input	Unit text	percentage of EdU-negative
MQLPLALCLVCLLVHTAFRVVEGQGWQAFKNDATEIIPELGEYPEPPPELENNKTMNRAENGGRPPHHPFETKDVSEYSCRELHFTRYVTDGPCRSAKPVTELVCSGQCGPARLLPNAIGRGKWWRPSGPDFRCIPDRYRAQRVQLLCPGGEAPRARKVRLVASCKCKRLTRFHNQSELKDFGTEAARPQKGRKPRPRARSAKANQAELENAY [Q9BQB4]	%	5.07
MTGLCGYSAPDMRGLRLIMIPVELLLCYLLLHPVDATSYGKQTNVLMHFPLSLESQTPSSDPLSCQFLHPKSLPGFSHMAPLPKFLVSLALRNALEEAGCQADVWALQLQLYRQGGVNATQVLIQHLRGLQKGRSTERNVSVEALASALQLLAREQQSTGRVGRSLPTEDCENEKEQAVHNVVQLLPGVGTFYNLGTALYYATQNCLGKARERGRDGAIDLGYDLLMTMAGMSGGPMGLAISAALKPALRSGVQQLIQYYQDQKDANISQPETTKEGLRAISDVSDLEETTTLASFISEVVSSAPYWGWAIIKSYDLDPGAGSLEI	%	5.17
MKAWGTVVVTLATLMVVTVDAKIYERCELAARLERAGLNGYKGYGVGDWLCMAHYESGFDTAFVDHNPDGSSEYGIFQLNSAWWCDNGITPTKNLCHMDCHDLLNRHILDDIRCAKQIVSSQNGLSAWTSWRLHCSGHDLSEWLKGCDMHVKIDPKIHP [Q96QH8]	%	6.28
MQQPFNYPYPQIYWVDSSASSPWAPPGTVLPCPTSVPRRPGQRRPPPPPPPPPLPPPPPPPPLPPLPLPPLKKRGNHSTGLCLLVMFFMVLVALVGLGLGMFQLFHLQKELAELRESTSQMHTASSLEKQIGHPSPPPEKKELRKVAHLTGKSNSRSMPLEWEDTYGIVLLSGVKYKKGGLVINETGLYFVYSKVYFRGQSCNNLPLSHKVYMRNSKYPQDLVMMEGKMMSYCTTGQMWARSSYLGAVFNLTSADHLYVNVSELSLVNFEESQTFFGLYKL	%	4.44
MQRVSGLLSWTLSRVLWLSGLSEPGAARQPRIMEEKALEVYDLIRTIRDPEKPNTLEELEVVSESCVEVQEINEEEYLVIIRFTPTVPHCSLATLIGLCLRVKLQRCLPFKHKLEIYISEGTHSTEEDINKQINDKERVAAAMENPNLREIVEQCVLEPD [Q9H5X1]	%	5.26
MKVTGIFLLSALALLSLSGNTGADSLGREAKCYNELNGCTKIYDPVCGTDGNTYPNECVLCFENRKRQTSILIQKSGPC	%	5.21
MLLLPFQLLAVLFPGGNSEHAFQGPTSFHVIQTSSFTNSTWAQTQGSGWLDDLQIHGWDSDSGTAIFLKPWSKGNFSDKEVAELEEIFRVYIFGFAREVQDFAGDFQMKYPFEIQGIAGCELHSGGAIVSFLRGALGGLDFLSVKNASCVPSPEGGSRAQKFCALIIQYQGIMETVRILLYETCPRYLLGVLNAGKADLQRQVKPEAWLSSGPSPGPGRLQLVCHVSGFYPKPVWVMWMRGEQEQQGTQLGDILPNANWTWYLRATLDVADGEAAGLSCRVKHSSLEGQDIILYWRNPTSIGSIVLAIIVPSLLLLLCLALWYMRRRSYQNIP	%	5.01
MIFPWKCQSTQRDLWNIFKLWGWTMLCCDFLAHHGTDCWTYHYSEKPMNWQRARRFCRDNYTDLVAIQNKAEIEYLEKTLPFSRSYYWIGIRKIGGIWTWVGTNKSLTEEAENWGDGEPNNKKNKEDCVEIYIKRNKDAGKWNDDACHKLKAALCYTASCQPWSCSGHGECVEIINNYTCNCDVGYYGPQCQFVIQCEPLEAPELGTMDCTHPLGNFSFSSQCAFSCSEGTNLTGIEETTCGPFGNWSSPEPTCQVIQCEPLSAPDLGIMNCSHPLASFSFTSACTFICSEGTELIGKKKTICESSGIWSNPSPICQKLDKSFSMIKEGDYNPLFIPVAVMVTAFSGLAFIIWLARRLKKGKKSKRSMNDPY	%	4.92
MLDWRLASAHFILAVTLTLWSSGKVLSVDVTTTEAFDSGVIDVQSTPTVREEKSATDLTAKLLLLDELVSLENDVIETKKKRSFSGFGSPLDRLSAGSVDHKGKQRKVVDHPKRRFGIPMDRIGRNRLSNSRG	%	5.01
MSALWLLLGLLALMDLSESSNWGCYGNIQSLDTPGASCGIGRRHGLNYCGVRASERLAEIDMPYLLKYQPMMQTIGQKYCMDPAVIAGVLSRKSPGDKILVNMGDRTSMVQDPGSQAPTSWISESQVSQTTEVLTTRIKEIQRRFPTWTPDQYLRGGLCAYSGGAGYVRSSQDLSCDFCNDVLARAKYLKRHGF [Q8N1E2]	%	4.76
MMRCCRRRCCCRQPPHALRPLLLLPLVLLPPLAAAAAGPNRCDTIYQGFAECLIRLGDSMGRGGELETICRSWNDFHACASQVLSGCPEEAAAVWESLQQEARQAPRPNNLHTLCGAPVHVRERGTGSETNQETLRATAPALPMAPAPPLLAAALALAYLLRPLA [Q496H8]	%	4.98
MGTKAQVERKLLCLFILAILLCSLALGSVTVHSSEPEVRIPENNPVKLSCAYSGFSSPRVEWKFDQGDTTRLVCYNNKITASYEDRVTFLPTGITFKSVTREDTGTYTCMVSEEGGNSYGEVKVKLIVLVPPSKPTVNIPSSATIGNRAVLTCSEQDGSPPSEYTWFKDGIVMPTNPKSTRAFSNSSYVLNPTTGELVFDPLSASDTGEYSCEARNGYGTPMTSNAVRMEAVERNVGVIVAAVLVTLILLGILVFGIWFAYSRGHFDRTKKGTSSKKVIYSQPSARSEGEFKQTSSFLV [Q9Y624]	%	4.79
MAPAQRPLLPLLLLLLPLPPPPFARAEDAARANSDRYAVYWNRSNPRFHAGAGDDGGGYTVEVSINDYLDIYCPHYGAPLPPAERMEHYVLYMVNGEGHASCDHRQRGFKRWECNRPAAPGGPLKFSEKFQLFTPFSLGFEFRPGHEYYYISATPPNAVDRPCLRLKVYVRPTNETLYEAPEPIFTSNNSCSSPGGCRLFLSTIPVLWTLLGS	%	5.69
